Target: Gamma-secretase
Assay: Modulation of gamma-secretase activity (unknown origin) assessed as amyloid-beta(1-42) production by ELISA
Assay type: protein-complex assay, Homo sapiens
MEASUREMENT_TYPE: IC50 (nM)

1. COc1cc(Nc2nc3c(c(N(C)C)n2)C=CCOC3c2ccccc2)ccc1-n1cnc(Cl)c1 (centres undefined)
2. COc1cc(Nc2nc3c(c(N(C)C)n2)C=CCN=C3c2ccccc2)ccc1-n1cnc(Cl)c1
3. CNc1nc(Nc2ccc(-n3cnc(Cl)c3)c(OC)c2)nc2c1C=CCN=C2c1ccccc1
4. COc1cc(Nc2nc3c(c(N(C)C)n2)C=CCNC3c2ccccc2)ccc1-n1cnc(Cl)c1 (centres undefined)
## Task Lab note: order the above by reported IC50, lowest first, highest last. Order the labels as requested and give them as your answer.
## Result 3, 2, 4, 1
